Values compiled from the RNAGym collection of RNA variant scans (doi:10.7554/elife.80360).

# self-cleavage values compiled below
B1: HDV Ribozyme (parent)
chain: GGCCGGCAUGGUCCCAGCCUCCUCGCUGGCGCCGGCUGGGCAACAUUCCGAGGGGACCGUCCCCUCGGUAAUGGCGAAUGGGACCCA

variants of: B1; assay: self-cleavage, relative activity (ratio to wild type); higher = more cleavage; co-transcriptional
Lab note: record just the number, no unit beside it.

Study these solved cases before continuing.
{"columns": ["sequence_change", "outcome_measure", "result_number"],
 "data": [
  ["C30U G50C", "self-cleavage", 0.677],
  ["A51G C58G", "self-cleavage", 0.969],
  ["U12A C75A", "self-cleavage", 0.095],
  ["U9G G34U", "self-cleavage", 0.237],
  ["C14G C48U", "self-cleavage", 0.831]
]}

## Task Recorded self-cleavage of G80U C84U , please.
## Result 0.164

## Task Recorded self-cleavage of G11A C61U , please.
## Result 0.529

## Task Recorded self-cleavage of U9G G52C , please.
## Result 0.95

## Task Recorded self-cleavage of U27C A45U , please.
## Result 0.532

## Task Recorded self-cleavage of C41U A51C , please.
## Result 0.916

## Task Recorded self-cleavage of G34A G53A , please.
## Result 0.174
